Molecular target: T1, GRIP1_2, Q9Y3R0
T1 sequence (Q9Y3R0 145-248, limits assumed, looked up): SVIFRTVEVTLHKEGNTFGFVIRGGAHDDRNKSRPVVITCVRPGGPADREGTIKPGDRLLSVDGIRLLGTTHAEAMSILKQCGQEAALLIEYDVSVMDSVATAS
Assay: holdup assay
Design: key: below the threshold = too weak to quantify, mostly under pKd 3.1 to 4
Conditions: plain residues with an end cap or a label only (N-terminal biotin on a linker: ttds)
measurementLabel: pKd

Known results for binders:
IN: pKd for NDPAWDETNL [ARHGEF7, Q14155;Q14155-1] ?
OUT: below the threshold

IN: Sample KKYVDAETSL [SLC4A7, Q9Y6M7] — what was its pKd?
OUT: below the threshold

IN: Dear colleague, I am looking for the recorded pKd of the following binder: EVVHTPETSV [SLC16A3, O15427]
OUT: below the threshold

IN: Looking for the measured pKd of FHPLGADSQV [SLC2A1, P11166] , can you help?
OUT: below the threshold

IN: What does the record list as pKd for PVRVCEETSL [OTULIN, Q96BN8] ?
OUT: 3.69

IN: Fill blank: measured pKd of the binder SSLQSLETSV [ATP2B4, P23634] is ____.
OUT: 3.58

// each binder listed below needs its pKd
1. SGSRPSATVV [HPV73-E6, Q82005]
2. RHTTSTETAV [HPV30-E6, P36809]

OUT:
1. below the threshold
2. 3.78

IN: Could you share which pKd value was measured for RLPKIKETTV [FRMPD4, Q14CM0] ?
OUT: below the threshold
